pIC50 values, listed per item
# Measured on: KDM4C (JMJD2C) (Homo sapiens, UniProt Q9H3R0)
# Sequence (Q9H3R0 1-349): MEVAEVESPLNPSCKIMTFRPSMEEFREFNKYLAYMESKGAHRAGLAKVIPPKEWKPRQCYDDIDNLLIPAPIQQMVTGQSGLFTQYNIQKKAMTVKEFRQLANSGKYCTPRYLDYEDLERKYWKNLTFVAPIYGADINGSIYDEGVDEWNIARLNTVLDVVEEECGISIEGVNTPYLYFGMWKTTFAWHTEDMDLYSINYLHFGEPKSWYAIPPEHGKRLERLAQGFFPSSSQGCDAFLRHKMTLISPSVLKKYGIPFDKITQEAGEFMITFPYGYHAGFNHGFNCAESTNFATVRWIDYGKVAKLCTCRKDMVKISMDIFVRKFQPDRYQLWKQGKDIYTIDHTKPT
# Procedure text: Histone lysine demethylase AlphaLISA assay, KDM4C
# Assay type: biochemical
# Conditions used: read-out: KDM4C HDME Inhibition IC50
pIC50: −log10 of the molar value.
Measured attribute: pIC50

[[record]]
compound = "CN(C)CCNCc1ccnc(CNCCCN(C)Cc2ccccc2)c1 [Compound 18]"
meas_value = "< 5.60"

[[record]]
compound = "NCc1ccnc(CNCCCCN2CCC2)c1 [Compound 7]"
meas_value = "< 5.60"

[[record]]
compound = "COc1ccccc1CN1CCC(NC(=O)CNCc2cc(CNC3CC3)ccn2)CC1 [Compound 20]"
meas_value = "5.60 to 6.60"

[[record]]
compound = "CCN(CC)CCCCNCc1cc(/C=N/CC2(CO)CC2)ccn1 [Compound 77]"
meas_value = "< 5.60"

[[record]]
compound = "O=C(CNCc1cc(/C=N/C2CC2)ccn1)N1CCC(Cc2ccccc2)CC1 [Compound 55]"
meas_value = "5.60 to 6.60"

[[record]]
compound = "CCN(CC(C)(C)N(C)C)C(=O)CNCc1cc(C=O)ccn1 [Compound 118]"
meas_value = "> 6.60"

[[record]]
compound = "CCN(CCN(C)C)C(=O)CNCc1cc(C=O)ccn1 [Compound 101]"
meas_value = "> 6.60"

[[record]]
compound = "CCN(CC)CCCCNCc1cc(/C=N/CC(O)Cc2ccccc2)ccn1 (stereo not drawn) [Compound 84]"
meas_value = "< 5.60"

[[record]]
compound = "CCN(CC)CCCCNCc1cc(C=O)ccn1 [Compound 107]"
meas_value = "< 5.60"

[[record]]
compound = "CCN(CC)CCCCNC(=O)CNCc1cc(/C=N/C2CC2)ccn1 [Compound 48]"
meas_value = "5.60 to 6.60"

[[record]]
compound = "CN(C)C/C=C\\CNCc1cc(C=O)ccn1 [Compound 99]"
meas_value = "< 5.60"

[[record]]
compound = "CN1CCN(C(=O)CNCc2cc(/C=N/C3CC3)ccn2)CC1 [Compound 54]"
meas_value = "5.60 to 6.60"

[[record]]
compound = "COc1ccccc1CN1CCC(NC(=O)CNCc2cc(CN)ccn2)CC1 [Compound 9]"
meas_value = "< 5.60"

[[record]]
compound = "CCN(CC)CCCCN(Cc1cc(CNC(=O)C(F)(F)F)ccn1)C(=O)C(F)(F)F [Compound 6]"
meas_value = "< 5.60"

[[record]]
compound = "CCN(CC)CCCCNCc1cc(C=NCC(C)O)ccn1 (stereo not drawn) [Compound 74]"
meas_value = "< 5.60"

[[record]]
compound = "CN(C)C(=O)CNCc1cc(/C=N/CCC2CCCCC2)ccn1 [Compound 36]"
meas_value = "5.60 to 6.60"

[[record]]
compound = "CCN(CCN(C)C)C(=O)CNCc1cc(CN)ccn1 [Compound 4]"
meas_value = "5.60 to 6.60"

[[record]]
compound = "CCN(CC1CCCN1C)C(=O)CNCc1cc(/C=N/CCO)ccn1 (stereo not drawn) [Compound 79]"
meas_value = "5.60 to 6.60"

[[record]]
compound = "CCN(CCN(C)C)C(=O)CNCc1cc(CNC(=O)C(F)(F)CC)ccn1 [Compound 32]"
meas_value = "< 5.60"

[[record]]
compound = "CCN(CCN(C)C)C(=O)CNCc1cc(C2OCC3(CC3)CN2C(=O)C(F)(F)F)ccn1 (stereo not drawn) [Compound 91]"
meas_value = "5.60 to 6.60"

[[record]]
compound = "CCN(CCN(C)C)C(=O)CNCc1cc(/C=N/CCO)ccn1 [Compound 66]"
meas_value = "> 6.60"

[[record]]
compound = "O=Cc1ccnc(CNCCCCN(Cc2ccccc2)C2CC2)c1 [Compound 109]"
meas_value = "5.60 to 6.60"

[[record]]
compound = "O=Cc1ccnc(CNCC(=O)NC2CCN(Cc3ccccc3)C2)c1 (stereo not drawn) [Compound 113]"
meas_value = "5.60 to 6.60"

[[record]]
compound = "CC(C)C[C@H](NCc1cc(/C=N/CCO)ccn1)C(=O)N1CCCCC1 [Compound 95]"
meas_value = "< 5.60"

